- Species: Rattus norvegicus
- protocol: Open TG-GATES - Regimen: Daily Repeat
- Assay type: toxicity, organism-based, Sprague-Dawley
- Design: regimen Daily Repeat, gender Male, age 6 weeks
- study_conditions: in vivo, po, 1000 mg/kg, […], tissue Blood, route gavage, dose level High, time 7 day
Listing of recorded MCHC by entry.
Report the value in % with no unit label.

O=C(OC[C@H]1O[C@@H](OC(=O)c2cc(O)c(O)c(OC(=O)c3cc(O)c(O)c(O)c3)c2)[C@H](OC(=O)c2cc(O)c(O)c(OC(=O)c3cc(O)c(O)c(O)c3)c2)[C@@H](OC(=O)c2cc(O)c(O)c(OC(=O)c3cc(O)c(O)c(O)c3)c2)[C@@H]1OC(=O)c1cc(O)c(O)c(OC(=O)c2cc(O)c(O)c(O)c2)c1)c1cc(O)c(O)c(OC(=O)c2cc(O)c(O)c(O)c2)c1
33.3
CNC(=C[N+](=O)[O-])NCCSCc1ccc(CN(C)C)o1
35.5
Cc1nnc2n1-c1ccc(Cl)cc1C(c1ccccc1Cl)=NC2
33.6
CN/C(=N/CCSCc1nc[nH]c1C)NC#N
33.5
COC(=O)C1=C(C)NC(C)=C(C(=O)OC)C1c1ccccc1[N+](=O)[O-]
33.1

Switching to the query record.
Q: Field request: MCHC | item: CCOc1ccc(NC(C)=O)cc1
Ans: 31.2

---

Listing of recorded KIDNEY_L by entry.
- Organism: Rattus norvegicus
- protocol: Open TG-GATES - Regimen: Single
- Format: toxicity, organism-based, Sprague-Dawley
- Set-up: regimen Single, gender Male, age 6 weeks
- study_conditions: in vivo, po, 0 mg/kg, 3 h, tissue Kidney, route gavage, dose level Control
Report the value in g with no unit label.

These recorded examples may help you get a feel for the data.
CC(C)NNC(=O)c1ccncc1
0.9
Brc1ccccc1
0.9
NC1=NC(=O)C(c2ccccc2)O1 (centres undefined)
0.9

Q: Field request: KIDNEY_L | item: O=C(OC[C@H]1O[C@@H](OC(=O)c2cc(O)c(O)c(OC(=O)c3cc(O)c(O)c(O)c3)c2)[C@H](OC(=O)c2cc(O)c(O)c(OC(=O)c3cc(O)c(O)c(O)c3)c2)[C@@H](OC(=O)c2cc(O)c(O)c(OC(=O)c3cc(O)c(O)c(O)c3)c2)[C@@H]1OC(=O)c1cc(O)c(O)c(OC(=O)c2cc(O)c(O)c(O)c2)c1)c1cc(O)c(O)c(OC(=O)c2cc(O)c(O)c(O)c2)c1
Ans: 0.9

Q: Entry to check: CN/C(=N/CCSCc1nc[nH]c1C)NC#N
Ans: 1

Q: Entry to check: CN(C)CCC(c1ccc(Cl)cc1)c1ccccn1 (centres undefined)
Ans: 0.9

Q: Entry to check: Cc1nnc2n1-c1ccc(Cl)cc1C(c1ccccc1Cl)=NC2
Ans: 0.8

Q: Entry to check: CCOc1ccc(NC(C)=O)cc1
Ans: 0.9

Q: Entry to check: COC(=O)C1=C(C)NC(C)=C(C(=O)OC)C1c1ccccc1[N+](=O)[O-]
Ans: 0.9

Q: Entry to check: CCCc1cc(=O)[nH]c(=S)[nH]1
Ans: 0.8

---

- Species on record: Rattus norvegicus
- protocol: Open TG-GATES - Regimen: Single
- Assay type: toxicity, organism-based, Sprague-Dawley
- Parameters: regimen Single, gender Male, age 6 weeks
- study_conditions: in vivo, po, 0 mg/kg, 24 h, tissue Kidney, route gavage, dose level Control
Listing of recorded KIDNEY_R by entry.
Units required after the number.

COC(=O)C1=C(C)NC(C)=C(C(=O)OC)C1c1ccccc1[N+](=O)[O-] [NIFEDIPINE]
0.9 g

Q: Field request: KIDNEY_R | item: Nc1c2c(nc3ccccc13)CCCC2 [TACRINE]
Ans: 1 g

Q: Entry to check: Cc1nnc2n1-c1ccc(Cl)cc1C(c1ccccc1Cl)=NC2 [TRIAZOLAM]
Ans: 0.9 g

Q: Entry to check: CCOc1ccc(NC(C)=O)cc1 [PHENACETIN]
Ans: 1 g

Q: Entry to check: CCCc1cc(=O)[nH]c(=S)[nH]1 [PROPYLTHIOURACIL]
Ans: 0.9 g

---

Listing of recorded MCHC by entry.
- Organism: Rattus norvegicus
- protocol: Open TG-GATES - Regimen: Daily Repeat
- Assay type: toxicity, organism-based, Sprague-Dawley
- Design: regimen Daily Repeat, gender Male, age 6 weeks
- study_conditions: in vivo, po, 0 mg/kg, 72 h, tissue Blood, route gavage, dose level Control, time 3 day
Report the value in % with no unit label.

These recorded examples may help you get a feel for the data.
CC(C)NNC(=O)c1ccncc1
34.5
O=C(OC[C@H]1O[C@@H](OC(=O)c2cc(O)c(O)c(OC(=O)c3cc(O)c(O)c(O)c3)c2)[C@H](OC(=O)c2cc(O)c(O)c(OC(=O)c3cc(O)c(O)c(O)c3)c2)[C@@H](OC(=O)c2cc(O)c(O)c(OC(=O)c3cc(O)c(O)c(O)c3)c2)[C@@H]1OC(=O)c1cc(O)c(O)c(OC(=O)c2cc(O)c(O)c(O)c2)c1)c1cc(O)c(O)c(OC(=O)c2cc(O)c(O)c(O)c2)c1
33.4
COC(=O)C1=C(C)NC(C)=C(C(=O)OC)C1c1ccccc1[N+](=O)[O-]
32.5
CCCc1cc(=O)[nH]c(=S)[nH]1
33.2
NC1=NC(=O)C(c2ccccc2)O1 (configuration not stated)
33.7
CN(C)CCC(c1ccc(Cl)cc1)c1ccccn1 (configuration not stated)
32.1
CN/C(=N/CCSCc1nc[nH]c1C)NC#N
33.4
CNC(=C[N+](=O)[O-])NCCSCc1ccc(CN(C)C)o1
34.4
Cc1nnc2n1-c1ccc(Cl)cc1C(c1ccccc1Cl)=NC2
33.5
Nc1c2c(nc3ccccc13)CCCC2
35

Q: Field request: MCHC | item: CN1C(=O)CCS(=O)(=O)C1c1ccc(Cl)cc1 (configuration not stated)
Ans: 34.4

Q: Entry to check: Brc1ccccc1
Ans: 34.3

---

- Species on record: Rattus norvegicus
- protocol: Open TG-GATES - Regimen: Single
- Type: toxicity, organism-based, Sprague-Dawley
- Design: regimen Single, gender Male, age 6 weeks
- study_conditions: in vivo, po, 100 mg/kg, 3 h, tissue Kidney, route gavage, dose level Low
metric: KIDNEY_R

These recorded examples may help you get a feel for the data.
Cc1nnc2n1-c1ccc(Cl)cc1C(c1ccccc1Cl)=NC2 [TRIAZOLAM]
0.8 g
CN/C(=N/CCSCc1nc[nH]c1C)NC#N [CIMETIDINE]
1 g
O=C(OC[C@H]1O[C@@H](OC(=O)c2cc(O)c(O)c(OC(=O)c3cc(O)c(O)c(O)c3)c2)[C@H](OC(=O)c2cc(O)c(O)c(OC(=O)c3cc(O)c(O)c(O)c3)c2)[C@@H](OC(=O)c2cc(O)c(O)c(OC(=O)c3cc(O)c(O)c(O)c3)c2)[C@@H]1OC(=O)c1cc(O)c(O)c(OC(=O)c2cc(O)c(O)c(O)c2)c1)c1cc(O)c(O)c(OC(=O)c2cc(O)c(O)c(O)c2)c1 [TANNIC ACID]
0.9 g
COC(=O)C1=C(C)NC(C)=C(C(=O)OC)C1c1ccccc1[N+](=O)[O-] [NIFEDIPINE]
0.9 g

Switching to the query record.
Q: Field request: KIDNEY_R | item: CNC(=C[N+](=O)[O-])NCCSCc1ccc(CN(C)C)o1 [RANITIDINE]
Ans: 1 g

---

Listing of recorded ALT by entry.
- Species: Rattus norvegicus
- protocol: Open TG-GATES - Regimen: Daily Repeat
- Type: toxicity, organism-based, Sprague-Dawley
- Set-up: regimen Daily Repeat, gender Male, age 6 weeks
- study_conditions: in vivo, po, 0 mg/kg, […], tissue Plasma, route gavage, dose level Control, time 28 day
Report the value in IU/L with no unit label.

These recorded examples may help you get a feel for the data.
Nc1c2c(nc3ccccc13)CCCC2
38.6
CNC(=C[N+](=O)[O-])NCCSCc1ccc(CN(C)C)o1
31.6
Cc1nnc2n1-c1ccc(Cl)cc1C(c1ccccc1Cl)=NC2
36.6
NC1=NC(=O)C(c2ccccc2)O1 (stereo not given)
41.2

Q: Field request: ALT | item: COC(=O)C1=C(C)NC(C)=C(C(=O)OC)C1c1ccccc1[N+](=O)[O-]
Ans: 36.2

---

- Species on record: Rattus norvegicus
- protocol: Open TG-GATES - Regimen: Single
- Assay type: toxicity, organism-based, Sprague-Dawley
- Parameters: regimen Single, gender Male, age 6 weeks
- study_conditions: in vivo, po, 100 mg/kg, 24 h, tissue Plasma, route gavage, dose level Low
metric: ALT (IU/L)
Report the value in IU/L with no unit label.

CNC(=C[N+](=O)[O-])NCCSCc1ccc(CN(C)C)o1 [RANITIDINE]
33.8

Switching to the query record.
Q: Field request: ALT | item: COC(=O)C1=C(C)NC(C)=C(C(=O)OC)C1c1ccccc1[N+](=O)[O-] [NIFEDIPINE]
Ans: 44.4
